system: T-47D breast; test: NCI-60 one-dose screen, 48 h (100 = growth as untreated, 0 = no growth, -100 = all killed); conditions: 10 µM unless noted
Compounds without any hit were thinned out: in the full panel of roughly 83,000, 20% have a hit.
VALUE KIND: growth (%)
Respond numerically; units are % and should not be typed.

For the record CNCCCNc1nc2ccccc2c2c(=O)c3cc(F)ccc3sc12 , what value of growth is listed for T-47D breast? 22.4

Now the compound C=C1CC[C@@]2(C#N)[C@H]3[C@H](CC[C@@H]2C)[C@@H](C)C[C@@H](CC(C)(C)C#N)[C@H]13 21.5

Now the compound O=C1CCC(C(=O)NCCNCCNC(=O)C2CCC(=O)N2)N1 (centres undefined) 85

Now the compound COc1ccc(/C=N/Nc2cc(=O)[nH]c3ccc(Cl)cc23)cc1 42.4

Now the compound O=c1c2cc(F)ccc2sc2c(NCCCNCCO)nc3ccc(F)cc3c12 70.2

Now the compound COc1cc(C(=O)N2N=C(c3ccc(S(C)(=O)=O)cc3)CC2c2ccco2)cc(OC)c1OC (centres undefined) 59.3

Now the compound O=c1[nH]c2c(ccc3cnccc32)c2c1CCC2 -7.41

Now the compound CCCCn1c(-c2ccc(-c3nc(-c4ccc(Cl)cc4)no3)cc2)nc(-c2ccccc2)c1-c1ccccc1 76.3

Now the compound C=C1C(=O)O[C@H]2[C@H]1CC/C(COC(=O)CCSSCCC(=O)OC/C1=C/CC[C@@]3(C)O[C@H]3[C@H]3OC(=O)C(=C)[C@@H]3CC1)=C\CC[C@@]1(C)O[C@@H]21 -8.54

Now the compound N#Cc1c(-c2ccc(Cl)cc2)nc(NCCO)[nH]c1=O 89.4

Now the compound CS(=O)(=O)N(c1cc(-c2ccc3ncnc(Nc4ccc(F)c(Cl)c4)c3c2)cnc1Cl)S(C)(=O)=O -11

Now the compound CSc1ccc2c(c1)c(CCN)c(C)n2Cc1ccc(Cl)c(Cl)c1 -73.7

Now the compound COc1ccc(-c2nnc(COc3ccc(Cl)cc3Cl)o2)cc1OC -10.5

Now the compound CCC12CCC[N+]3([O-])CCC4(C(=Nc5ccccc54)C(O)(C(=O)OC)C1)C23 (centres undefined) 94.8

====

System: HOP-92 NSCLC
Test: NCI-60 one-dose screen, 48 h (100 = growth as untreated, 0 = no growth, -100 = all killed)
Conditions: 10 µM unless noted
Description: Growth inhibition of the HOP-92 human Non-Small Cell Lung tumor cell line is measured as a screen for anti-cancer activity. Cells are grown in 96 well plates and exposed to the test compound for 48 hours. Compounds are tested at a single concentration, which is 10^-5 M for most compounds. The reported endpoint is percent growth (GI% or GIPRCNT), where numbers from 0 - 100% represent growth inhibition, and numbers from -100% - 0 represent cell death. […]
This is part of a sample that, as a whole, favours compounds with a hit. Of some 83,000 tested, about 20% had one in any assay.
Please go through the items and note down their growth.
Respond numerically; units are % and should not be typed.

Give the measured growth of Nc1nn(C(=O)Nc2ccc(Cc3ccccc3)cc2)c2ccc(Cl)cc12 . 99.8

Now the compound Cc1cccc2c3c(sc12)C(c1ccc(F)cc1)C(C#N)=C(N)O3 (stereo unspecified) 68.4

Now the compound CCN(CC)CCNC(=O)c1cn2ncnc(Oc3ccc(NC(=O)Nc4ccc(Cl)c(C(F)(F)F)c4)cc3)c2c1C -39.1

Now the compound O=C1c2cccc3cccc(c23)C(=O)N1Nc1nc(N2CCOCC2)nc(N2CCN(c3ccccc3)CC2)n1 7.52

Now the compound O=C(O)CCC/C=C\C[C@H]1C=CC(=O)/C1=C/C[C@@H](O)CCc1cccc(C(F)(F)F)c1 -20.6

Now the compound Cc1ccc(C(=O)NN2C(=O)CSC2c2cccc([N+](=O)[O-])c2)cn1 (stereo unspecified) 81.3

Now the compound C#C[C@]1(O)CC[C@H]2[C@@H]3CC=C4c5sc(Nc6cc(F)ccc6F)nc5CC[C@]4(C)[C@H]3CC[C@@]21C 13.1

Now the compound CCCCCCCCCCCCCCCCCCOc1ccccc1CCCOP(=O)(O)OCC[N+](C)(C)C 33.4

Now the compound CC(C)OC(=O)Nc1ccc(-c2nc(-c3cccc(OCCN4CCOCC4)c3)c(-c3ccnc(Br)c3)[nH]2)cc1 29.8

Now the compound C=C(C)C1CCC2(C)OC2C1 (stereo unspecified) 117

Now the compound CC([C@H]1CCC2C3CCC4C(=O)C(NC=O)=CC[C@]4(C)C3CC[C@@]21C)N(C)C (stereo partly specified) 41.7

Now the compound O=C1NC(=O)C(c2ccccc2)(c2ccccc2)N1Cc1cn(-c2c3ccccc3nc3ccccc23)nn1 67.3

Now the compound COc1cc(C(=O)N2N=C(c3ccc(S(C)(=O)=O)cc3)CC2c2ccco2)cc(OC)c1OC (stereo unspecified) 39.8

Now the compound Cc1ccc(-c2nc3c(c(-c4ccccc4)nn3-c3ccccc3)c(-c3ccc(O)cc3)c2C#N)cc1 74.5

Now the compound CCCCOc1nc2c(C)cccc2cc1-c1cc(-c2ccc(Cl)cc2)nc(-c2ccc(Cl)cc2)c1 91.4

Now the compound COc1cc(CCCO)c(OC)c(OC)c1OC 100

Now the compound COc1ccc(CNC(=O)[C@H](O)[C@@H](N)Cc2ccccc2)cc1 72.8

Now the compound CCOc1c(B(O)O)cccc1-c1nc2ccc3[nH]ncc3c2c2c1CCCC2 33.5

Now the compound COc1ccc2nc(NC(=O)c3cccnc3Nc3ccc(S(N)(=O)=O)cc3)sc2c1 84.9

Now the compound Oc1ccc(Cl)cc1Cc1cc(Cl)cc(Cl)c1O -24.9

Now the compound O=c1ccc(N=Nc2ccccc2)ccc1Cl 114

Now the compound COc1cc(CCC[P+](c2ccccc2)(c2ccccc2)c2ccccc2)c(OC)c(OC)c1OC 61.8

Now the compound O=c1c2cccc(F)c2sc2c(NCCCNCCO)nc3ccccc3c12 15.4

Now the compound Nc1nc2ccccc2c2c(=O)c3cc(F)ccc3sc12 80.8

Now the compound c1ccc(-c2nc3sc(-c4ccccc4)cn3n2)cc1 74.4

Now the compound NS(=O)(=O)c1ccc(N=Nc2ccc(-c3nn4cc(-c5ccccc5)nc4s3)cc2)cc1 105

Now the compound CCOC(=O)c1nc(Nc2ccc(C(C)=O)cc2)sc1C 108

Now the compound CCCCCCNC(=O)Oc1ccc(/C(=C(\C)c2ccc(OC)cc2)c2ccc(OCCN3CCCCC3)cc2)cc1 67.6

Now the compound O=C(Nc1ccc(Br)cc1F)c1cc(Br)ccc1O -14.6

Now the compound Cc1onc2c(-c3ccccc3)n[nH]c(=O)c12 52.3

Now the compound CCCCn1c(=O)c(-c2cc(-c3ccc(Cl)cc3)nc(-c3ccc(Cl)cc3)c2)cc2ccc(Cl)cc21 88.3

Now the compound CNC(C)[C@H]1CCC2C3CCC4C[C@@H](N(C)C(=O)c5ccccc5)CC[C@]4(C)C3CC[C@@]21C (stereo partly specified) 19.2

Now the compound NCCCNc1nc2ccccc2c2c(=O)c3cc(F)cc(F)c3sc12 36

Now the compound CCCCCCn1c(-c2ccc(C(=O)O/N=C(\N)c3ccc4c(c3)OCO4)cc2)nc(-c2ccccc2)c1-c1ccccc1 -57.5

Now the compound O=CN(SSN(C=O)C1CCCCC1)C1CCCCC1 135

Now the compound O=C1/C(=C/c2ccccc2[N+](=O)[O-])Oc2ccc(O)c(O)c21 76.6

Now the compound NCCCNc1nc2ccccc2c2c(=O)c3cccc(F)c3sc12 35.8

Now the compound Fc1cc(-c2nnc3n2NC(=Nc2ccc(Cl)cc2)CS3)c(Cl)cc1Cl -18.6

Now the compound COc1ccc(/C=N/Nc2cc(=O)[nH]c3ccc(C)cc23)cc1 88

Now the compound COc1cc(C(=O)N/N=C/c2cc3cc(OCc4ccccc4)ccc3nc2OC)cc(OC)c1OC 66.7

Now the compound N#C/C(=C\c1ccc(F)cc1)n1nc2cccc(F)c2n1 6.85

====

Test system: NCI/ADR-RES ovarian
Assay: NCI-60 one-dose screen, 48 h (100 = growth as untreated, 0 = no growth, -100 = all killed)
Conditions: 10 µM unless noted
Experimental: Growth inhibition of the NCI/ADR-RES human […] tumor cell line is measured as a screen for anti-cancer activity. Cells are grown in 96 well plates and exposed to the test compound for 48 hours. Compounds are tested at a single concentration, which is 10^-5 M for most compounds. The reported endpoint is percent growth (GI% or GIPRCNT), where numbers from 0 - 100% represent growth inhibition, and numbers from -100% - 0 represent cell death. For example, a value of 40 represents 60% growth inhibition. […]
About 83,000 compounds went through this panel and 20% of them were active in at least one assay; those are over-represented in the sample as a whole.
Rule: growth of 50% or more gives yes (1); anything lower gives no (0).

API: above_or_equal(metric=growth, cutoff=50%) for item N/C(=N\c1nc2ccccc2s1)NC(=O)Nc1cccc2ccccc12 no (0)

Now the compound C[C@]12CC[C@@H]3c4cc(OC(F)F)c(OS(N)(=O)=O)cc4CC[C@H]3[C@@H]1CC[C@@H]2O no (0)

Now the compound COc1cc2cc(Oc3ccc(NC(=O)Nc4ccc(F)c(C(F)(F)F)c4)cc3)c(C)nc2cc1OCCN1CCOCC1 no (0)

Now the compound Brc1ccc2[nH]cc(-c3nc(-c4c[nH]c5ccncc45)cs3)c2c1 no (0)

Now the compound O=c1c2cccc(F)c2sc2c(NCCCNCCO)nc3ccccc3c12 no (0)

Now the compound COc1ccc(/C=N/Nc2cc(=O)[nH]c3ccc(C)cc23)cc1 yes (1)

Now the compound C#C[C@]1(O)CC[C@H]2[C@@H]3CC=C4c5sc(Nc6cc(F)ccc6F)nc5CC[C@]4(C)[C@H]3CC[C@@]21C no (0)

Now the compound CC1(C)C2CC1C1(/C=N\Nc3ccccc3)C(C2)C(C#N)(C#N)C1(C#N)C#N (centres undefined) yes (1)

Now the compound CC(C)(C)NC(=O)C(OC(=O)c1cccc(Cl)c1)c1ccc(Cl)cc1 (centres undefined) yes (1)

Now the compound CSc1nc2ccc(C)cc2cc1/C=N/O yes (1)

Now the compound CCN(CC)CCNc1nc2ccccc2c2c(=O)c3cc(Cl)ccc3sc12 no (0)

Now the compound Oc1ccc(-c2nc3ccc4[nH]ncc4c3c3c2CCCC3)c2cccnc12 no (0)

Now the compound COc1cc2cc(Oc3ccc(NC(=O)Nc4cccc(C(F)(F)F)c4)cc3)c(C)nc2cc1OCCN1CCOCC1 no (0)

Now the compound CCCCCCNC(=O)Oc1ccc(/C(=C(\C)c2ccc(Cl)cc2)c2ccc(OCCN3CCCCC3)cc2)cc1 yes (1)

Now the compound COc1ccc(CN2c3ccccc3CCc3ccccc32)cc1F no (0)

Now the compound CN1C(=O)CNC(=O)[C@H](NC(=O)c2nc3ccccc3cc2O)CSSC[C@H]1C(=O)NCCCc1nc2ccccc2cc1O yes (1)

Now the compound COc1ccc2c(c1)/C(=C/c1sc(=S)n(Cc3ccco3)c1O)C=N2 no (0)

Now the compound C/C=C(\C)C(=O)N[C@H]1[C@@H](OC(C)=O)C[C@]2(C)C3CC[C@@]4(C)C(CC[C@@H]4C(C)N(C)C)C3CCC2[C@H]1O (some centres undefined) yes (1)

Now the compound NCCOc1ncccc1/C=C1\C2C=CC=CC2C2C=CC(F)=CC12 (centres undefined) no (0)

Origin of measurements: PubChem BioAssay (NCI)
